Source listed as PubChem BioAssay.

# inhibition values compiled below
- protocol.text: TLR3 IRF3 reporter activation blockers – cell-based, poly I:C stimulus, luciferase, 10K MLSCN set, primary screen (AID 602277)
- measurement.conditions: HEK293-TLR3 RL24 IRF3 luciferase reporter, at 10 µM, stronger effect = higher value
Give the value in % but do not write % after it.

Please report the recorded inhibition for CC(C)CC1NC(=O)N(CC(=O)N2CCN(S(=O)(=O)c3ccc(Cl)cc3)CC2)C1=O (configuration not stated) .
-5.28

Please report the recorded inhibition for COCCOC(=O)c1c(C)oc2ccc(NS(=O)(=O)c3ccc(F)cc3)cc12 .
25.3

###

- protocol.text: reduction of polyQ htt aggregates in cells – imaging, exon1htt(103Q)mCFP cells, high-content imaging, primary screen (AID 483);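 also: compound exposure lasted 3 days before fixation; percent of the per-plate median nuclei count of sample wells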
- measurement.conditions: exon1htt(103Q)mCFP cell line, aggregate imaging, at 2 µM; measured here: cell count, toxicity
# nuclei count values compiled below
Give the value in % but do not write % after it.

Look over these answered cases.
c1ccc(Cc2nn3c(Cn4cnc5ccccc54)nnc3s2)cc1; 80.7
Cc1ccc(C)c(-n2c(CNC(=O)c3ccco3)nnc2SCC(=O)Nc2nnc(C)s2)c1; 99.5

Please report the recorded nuclei count for CC(=O)c1ccccc1OCCn1nnc(-c2ccc(C)cc2)n1 .
106

Please report the recorded nuclei count for Clc1cccc(N2CCN(Cc3nc(-c4ccccc4)no3)CC2)c1 .
112

Please report the recorded nuclei count for O=S(=O)(NCC1CCCO1)c1cc(Cl)ccc1Br (centres undefined) .
108

Please report the recorded nuclei count for O=C(NC1=NCCS1)NC12CC3CC(CC(C3)C1)C2 .
96.6
